As shown below, each of these compounds has a reported GI50 value.
# Tested on: A549
# Procedure Details: NCI tumour cell line growth inhibition, 48 h
Activity calls are given as the source filed them. No stated cut-off is given here; in the data, active = GI50 up to about 1.1 µM and inactive = higher.

Examples from the recorded data:
Compound	Study System	Reported Measurement
CC12CC/C(=N/NC(N)=O)C3C1CCCC32	A549	> 100 µM (inactive)
Cc1nnc(SCc2nc(C#N)c(C#N)nc2CSc2nnc(C)s2)s1	A549	33.3 µM (inactive)
O=c1c2cc(Br)ccc2oc2nc3n(c(=O)c12)CCCS3	A549	> 100 µM (inactive)
CC(C)CCC[C@@H](C)C1CCC2[C@@H]3CC=C4C[C@@H](C(=O)NCC[N+](C)(C)CCCS(=O)(=O)[O-])CC[C@]4(C)C3CC[C@@]21C (some centres undefined)	A549	17.3 µM (inactive)
O=C(CNC(=O)OCc1ccccc1)NCCCCC(NC(=O)OCc1ccccc1)C(=O)NC(CCCCNC(=O)CNC(=O)OCc1ccccc1)C(=O)OCc1ccccc1 (centres undefined)	A549	> 62.5 µM (inactive)

# input compound: "O=C1NC(Nc2ccccc2Cl)=N/C1=C\c1c(Cl)cccc1Cl" ; wanted: its GI50 30.4 µM (inactive)

How about "COC(=O)c1cc(/C=C/C(=O)Cc2ccccc2)cn1S(=O)(=O)c1ccccc1" ? > 100 µM (inactive)

How about "C/C(=N\Nc1nc2ccccc2[nH]1)c1ccc2ccccc2n1" ? 2.52 µM (inactive)

How about "COc1c(F)c(F)c(C(=O)/C=C2\Nc3ccccc3NC2=O)c(F)c1F" ? 9.16 µM (inactive)

How about "CO/C(=C/C(=O)C(Cl)(Cl)Cl)CC/C(=C\C(=O)C(Cl)(Cl)Cl)OC" ? 47.4 µM (inactive)

---

# System: HCT-116
# Procedure Details: NCI tumour cell line growth inhibition, 48 h
Active and inactive are the calls of the source. Rule as the data show it: active = GI50 up to about 1.1 µM and inactive = higher.
Parameter call: string, one of active, inactive

Previously resolved entries follow.
>>> print(df.to_string())
                                   compound  class_label
0  CCc1nc(N)nc(N)c1-c1ccc(Cl)c(/N=N/N(C)C)c1     inactive
1  Cc1cc(NS(=O)(=O)c2ccc(Nc3c4ccccc4nc4ccc(C(=O)Nc5ccc(S(N)(=O)=O)cc5)cc34)cc2)no1     inactive
2  C[C@]12CC(c3ccccc3O1)C(C(=O)NC13CC4CC(CC(C4)C1)C3)C(=O)N2 (some centres undefined)     inactive

GET /call?item= "O=C1c2cccc([N+](=O)[O-])c2C(=O)N1Cc1ccccc1" returns the recorded outcome of this test. inactive

How about "COC(=O)[C@@H]1CCc2nc3ccccc3c(=O)n21" ? inactive

How about CC(=O)O[C@@H]1CC(C)C2CC2C2=C(C(O)OC2O)[C@@H]1C(C)CCC=C(C)C (some centres undefined) ? inactive

How about "Cc1cc(=O)oc2c(C)c(OCCCOc3ccc4c(C)cc(=O)oc4c3C)ccc12" ? inactive

How about CC1(O)CC(=O)c2c(cc3ccc(-c4c5c(c(O)c6c(O)cccc46)C(=O)CC(C)(O)C5)c(O)c3c2O)C1 (centres undefined) ? active

How about C=C1C(=O)OC2/C=C(\C=O)CC/C=C(\C)C(O)C[C@@H]12 (some centres undefined) ? inactive

---

# System: MOLT-4
# Procedure Details: NCI tumour cell line growth inhibition, 48 h
Calls of active or inactive are those of the source. Rule as the data show it: active = GI50 up to about 1.1 µM and inactive = higher.
As shown below, each of these compounds has a reported GI50 value.

Compound	Reported Measurement
COC1=C(OC)C(=O)C(Cc2c(Cl)nc3sccn23)=C(C)C1=O	1.85 µM (inactive)
CCOC(=O)/C(C(=O)Nc1cccc(Cl)c1)=C(/N)N1CCCC1	> 100 µM (inactive)

# input compound: CC(C)C1C(=O)N(c2c(F)c(F)c(F)c(F)c2F)C(=S)N1CC[S+]([O-])c1ccccc1 (stereo not drawn) ; wanted: its GI50 21.2 µM (inactive)

How about "O=C1NC(Nc2ccccc2Cl)=N/C1=C\c1c(Cl)cccc1Cl" ? 27 µM (inactive)

How about C[C@@H]1OC(=O)C[C@H]2CC(=O)N(CCC3CN(C(=O)OCc4ccccc4)c4ccccc43)C[C@@H]21 (stereo partly drawn) ? > 100 µM (inactive)

How about COC(=O)C1=Cc2cc(OC)c(OC)c(OC)c2[C@H](c2cc(OC)c(OC)c(OC)c2)C1C(=O)OC (stereo partly drawn) ? > 100 µM (inactive)

How about "Cc1ccc(S(=O)(=O)Oc2cc(-c3ccccc3)nc3ccccc23)cc1" ? 3.63 µM (inactive)
